Biological target: UniProt Q8IY84
Sequence (Q8IY84 whole entry, looked up): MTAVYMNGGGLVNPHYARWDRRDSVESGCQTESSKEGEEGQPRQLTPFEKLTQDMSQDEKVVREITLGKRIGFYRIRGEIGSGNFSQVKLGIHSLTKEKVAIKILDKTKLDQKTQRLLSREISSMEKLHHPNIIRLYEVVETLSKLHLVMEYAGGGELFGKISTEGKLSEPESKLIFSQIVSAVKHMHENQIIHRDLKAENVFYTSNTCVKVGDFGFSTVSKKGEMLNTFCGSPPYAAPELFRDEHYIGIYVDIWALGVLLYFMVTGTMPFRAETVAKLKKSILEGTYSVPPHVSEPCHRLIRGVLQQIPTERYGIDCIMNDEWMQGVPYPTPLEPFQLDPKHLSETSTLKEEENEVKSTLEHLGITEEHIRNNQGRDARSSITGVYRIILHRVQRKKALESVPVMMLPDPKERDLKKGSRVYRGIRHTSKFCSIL
Assay: KINOMEscan competition binding
Conditions: compound 10.0 µM
measurement-kind: kinase still bound, per cent of control (%)
Numbers only, in %.

> print(dat)
                                   molecule  recorded.result
1  Cc1cn(-c2cc(C(=O)Nc3ccc(C)c(NC(=O)c4ccno4)c3)cc(C(F)(F)F)c2)cn1              100

# per-item lookup of kinase still bound, per cent of control; items listed below
1. CC(=O)c1c(C)c2cnc(Nc3ccc(N4CCNCC4)cn3)nc2n(C2CCCC2)c1=O
2. O=c1[nH]c2ccccc2n1C1CCN(Cc2ccc(-c3nc4cc5[nH]cnc5cc4nc3-c3ccccc3)cc2)CC1

Result string:
40
71

# batch size: 7; output kinase still bound, per cent of control per entry
1. CCCS(=O)(=O)Nc1ccc(F)c(C(=O)c2c[nH]c3ncc(Cl)cc23)c1F
2. COc1cc2c(Nc3ccc(NC(=O)c4ccccc4)cc3)ncnc2cc1OCCCN1CCOCC1
3. CCN(CCO)CCCOc1ccc2c(Nc3cc(CC(=O)Nc4cccc(F)c4)[nH]n3)ncnc2c1
4. CC1=C(C(=O)Nc2cc3cn[nH]c3cc2F)C(c2ccc(C(F)(F)F)cc2)CC(=O)N1 (stereo not given)
5. CCOc1cc(N2CCC(O)CC2)ccc1Nc1ncc2c(n1)N(C)c1ccccc1C(=O)N2C
6. N#C/C(=C1/Nc2ccccc2S1)c1ccnc(NCCc2cccnc2)n1
7. COc1cc2ncnc(Nc3cccc(Cl)c3)c2cc1OC

Result string:
1: 92; 2: 100; 3: 97; 4: 86; 5: 100; 6: 100; 7: 77

src = the kinase profiling compilation of Christmann-Franck et al. (2016)
